Entries with their measured Potency, system human-thrombin (product of Sigma) (human) (UniProt P00734):
REPORTED_PROPERTY: Potency

SUBSTANCE: peptide (Y) Suc-Phe-Glu-Pro-Ile-Pro-Glu-Tyr-Tyr-Leu-NHPO(OH)2
REPORTED_PROPERTY: Potency
NUMBER: 0.04
//
SUBSTANCE: peptide (A) Gly-Asp-Phe-Glu-Glu-Ile-Pro-Glu-Tyr-Tyr-Leu-Gln
REPORTED_PROPERTY: Potency
NUMBER: 0.45
//
SUBSTANCE: peptide (O) Suc-Phe-Glu-Pro-Ile-Pro-Glu-Tyr-Tyr-(L)Asu(OMe)OMe
REPORTED_PROPERTY: Potency
NUMBER: 0.19
//
SUBSTANCE: peptide (L) Suc-Phe-Glu-Pro-Ile-Pro-Glu-Tyr-Tyr-NH(CH2)4COOH
REPORTED_PROPERTY: Potency
NUMBER: 0.42
//
SUBSTANCE: peptide (W) Suc-Phe-Glu-Pro-Ile-Pro-Glu-Tyr-Tyr-Leu-(D)Asu(NH2)NH2
REPORTED_PROPERTY: Potency
NUMBER: 0.19
//
SUBSTANCE: peptide (P) Suc-Phe-Glu-Pro-Ile-Pro-Glu-Tyr-Tyr-Leu-ol
REPORTED_PROPERTY: Potency
NUMBER: 0.06
//
SUBSTANCE: peptide (C) Suc-Gly-Asp-Phe-Glu-Pro-Ile-Pro-Glu-Tyr-Tyr-Leu-Gln-OH
REPORTED_PROPERTY: Potency
NUMBER: 1.76
//
SUBSTANCE: peptide (S) Suc-Phe-Glu-Pro-Ile-Pro-Glu-Tyr-Tyr-Leu-Tau-NH2
REPORTED_PROPERTY: Potency
NUMBER: 0.07
//
SUBSTANCE: peptide (U) Suc-Phe-Glu-Pro-Ile-Pro-Glu-Tyr-Tyr-Leu-(D)Asu(OMe)OMe
REPORTED_PROPERTY: Potency
NUMBER: 0.14
